Test system: human prostate (PC-3) cancer cell line
Test: In vitro cytotoxic studies
Assay type: cell-based
Settings: 0.2 μM; PC-3 cells; 72 h; MTT
Entries annotated with measured Cytotoxicity % inhibition
Provide only the numeric value, understood in %.

Prompt: Recorded Cytotoxicity % inhibition of "Cc1ccc2c(c1)C(=O)C(=O)N2CC#CCN1CCN(CC#CCN2C(=O)C(=O)c3cc(C)ccc32)CC1" , please.
Response: −1.0

Prompt: Another compound: "O=C1C(=O)N(CC#CCN2CCCCC2)c2ccccc21"
Response: 6.0

====

System: human prostate (PC-3) cancer cell line
Assay: In vitro cytotoxic studies
Assay type: cell-based
Settings: 2 μM; PC-3 cells; 72 h; MTT
ASSAY_ENDPOINT: Cytotoxicity % inhibition (%)
Give a bare numeral; the unit % is implied.

Some solved entries appear below for comparison.
{"COMPOUND_STRUCTURE_STRING": "O=C1C(=O)N(CC#CCN2CCN(CC#CCN3C(=O)C(=O)c4ccccc43)CC2)c2ccccc21", "Cytotoxicity % inhibition, %": 10.3}
{"COMPOUND_STRUCTURE_STRING": "O=C1C(=O)N(CC#CCN2CCN(CC#CCN3C(=O)C(=O)c4cc(Cl)ccc43)CC2)c2ccc(Cl)cc21", "Cytotoxicity % inhibition, %": 28.9}

Prompt: Quick one: Cytotoxicity % inhibition for "O=C1C(=O)N(CC#CCN2CCN(CC#CCN3C(=O)C(=O)c4cc(F)ccc43)CC2)c2ccc(F)cc21" ?
Response: −3.6

Prompt: Try "O=C1C(=O)N(CC#CCN2CCCCC2)c2ccccc21" next.
Response: 4.0

Prompt: Queued: "Cc1ccc2c(c1)C(=O)C(=O)N2CC#CCN1CCN(CC#CCN2C(=O)C(=O)c3cc(C)ccc32)CC1"
Response: 6.7

====

The following compounds are listed with their measured cytotoxicity at 72 h, 2 µM values.
Experiment: In vitro cytotoxic studies
Assay type: cell-based, human
Conditions: human, PC-3 prostate cancer cells
Return type: number; implicit unit %.

// solved cases for cytotoxicity at 72 h, 2 µM follow
{"COMPOUND": "Cc1ccc2c(c1)C(=O)C(=O)N2CC#CCN1CCOCC1", "SCALE_UNIT": "%", "cytotoxicity at 72 h, 2 µM": 7.8}
{"COMPOUND": "CS(=O)(=O)N1CCN(Cc2cc3nc(-c4cccc5[nH]ncc45)nc(N4CCOCC4)c3s2)CC1 [GDC-0941, reference compound]", "SCALE_UNIT": "%", "cytotoxicity at 72 h, 2 µM": 56.8}
{"COMPOUND": "O=C1C(=O)N(CC#CCN2CCN(c3ccnc4cc(Cl)ccc34)CC2)c2ccc(F)cc21", "SCALE_UNIT": "%", "cytotoxicity at 72 h, 2 µM": 5}

Prompt: Quick check: cytotoxicity at 72 h, 2 µM of "Cc1ccc2c(c1)C(=O)C(=O)N2CC#CCN1CCN(c2ccnc3cc(Cl)ccc23)CC1" ?
Response: 8.1

Prompt: How about this compound: "CCN(CC)CC#CCN1C(=O)C(=O)c2cc(F)ccc21"
Response: 14.5

Prompt: Entry "Cc1ccc2c(c1)C(=O)C(=O)N2CC#CCN1CCCC1" please
Response: 4.7

Prompt: # repeat for "CCN(CC)CC#CCN1C(=O)C(=O)c2cc(C)ccc21"
Response: 10.2

Prompt: Request: "O=C1C(=O)N(CC#CCN2CCOCC2)c2ccccc21"
Response: 11.6

====

Tested on: Tritrichomonas foetus
Assay: In vitro protozoal parasite susceptibility assay
Format: cell-based
Conditions: Tritrichomonas foetus, 24 h, read-out: Average % inhibition at 50 μM (Tritrichomonas foetus)
Quick rule: inhibition at 50 µM of at least 60% means 1, below that means -1.

{"COMPOUND_STRUCTURE_STRING": "O=C1C(=O)N(CC#CCN2CCCCC2)c2ccc(F)cc21", "CLASS_NAME": -1}

Prompt: Is the recorded value of inhibition at 50 µM equal to or greater than 60% for this compound? "O=C1C(=O)N(CC#CCN2CCCC2)c2ccc(F)cc21"
Response: -1

Prompt: // next record "Cc1ccc2c(c1)C(=O)C(=O)N2CC#CCN1CCOCC1"
Response: -1

Prompt: Try this compound next: "CCN(CC)CC#CCN1C(=O)C(=O)c2cc(F)ccc21"
Response: -1

Prompt: Try this compound too: "CCN(CC)CC#CCN1C(=O)C(=O)c2cc(Cl)ccc21"
Response: -1

Prompt: Entry to check: "O=C1C(=O)N(CC#CCN2CCOCC2)c2ccc(F)cc21"
Response: -1

Prompt: Can you handle "Cc1ccc2c(c1)C(=O)C(=O)N2CC#CCN1CCCC1" next?
Response: 1

Prompt: # repeat for "O=C1C(=O)N(CC#CCN2CCN(c3ccnc4cc(Cl)ccc34)CC2)c2ccc(F)cc21"
Response: 1

Prompt: Now try "O=C1C(=O)N(CC#CCN2CCCC2)c2ccc(Cl)cc21" .
Response: -1

====

Test system: human prostate (PC-3) cancer cell line
Experiment: In vitro cytotoxic studies
Format: cell-based
Details: 20 μM; PC-3 cells; 72 h; MTT
// reported Cytotoxicity % inhibition per item
Form field: result (number plus unit)

Reference set (3 entries):
{"COMPOUND_STRUCTURE_STRING": "O=C1C(=O)N(CC#CCN2CCN(CC#CCN3C(=O)C(=O)c4cc(F)ccc43)CC2)c2ccc(F)cc21", "Cytotoxicity % inhibition": "7.4%"}
{"COMPOUND_STRUCTURE_STRING": "O=C1C(=O)N(CC#CCN2CCN(CC#CCN3C(=O)C(=O)c4cc(Cl)ccc43)CC2)c2ccc(Cl)cc21", "Cytotoxicity % inhibition": "24.8%"}
{"COMPOUND_STRUCTURE_STRING": "Cc1ccc2c(c1)C(=O)C(=O)N2CC#CCN1CCN(CC#CCN2C(=O)C(=O)c3cc(C)ccc32)CC1", "Cytotoxicity % inhibition": "7.1%"}

Prompt: Write down the reported Cytotoxicity % inhibition of "O=C1C(=O)N(CC#CCN2CCCCC2)c2ccccc21" , test system: human prostate (PC-3) cancer cell line.
Response: 7.0%

Prompt: Further, for "O=C1C(=O)N(CC#CCN2CCN(CC#CCN3C(=O)C(=O)c4ccccc43)CC2)c2ccccc21" ?
Response: 45.8%

====

System: Tritrichomonas foetus
Assay: In vitro protozoal parasite susceptibility assay
Format: cell-based
Details: Tritrichomonas foetus, 24 h, read-out: Average % inhibition at 50 μM (Tritrichomonas foetus)
ASSAY_ENDPOINT: inhibition at 50 µM (%)
All answers are understood in %, so give the number only.

Study these solved cases before continuing.
{"COMPOUND_STRUCTURE_STRING": "O=C1C(=O)N(CC#CCN2CCN(c3ccnc4cc(Cl)ccc34)CC2)c2ccccc21", "inhibition at 50 µM, %": 98.5}
{"COMPOUND_STRUCTURE_STRING": "O=C1C(=O)N(CC#CCN2CCCC2)c2ccccc21", "inhibition at 50 µM, %": 10.6}
{"COMPOUND_STRUCTURE_STRING": "CCN(CC)CC#CCN1C(=O)C(=O)c2cc(C)ccc21", "inhibition at 50 µM, %": 51.5}
{"COMPOUND_STRUCTURE_STRING": "O=C1C(=O)N(CC#CCN2CCOCC2)c2ccccc21", "inhibition at 50 µM, %": 9.1}
{"COMPOUND_STRUCTURE_STRING": "O=C1C(=O)N(CC#CCN2CCN(c3ccnc4cc(Cl)ccc34)CC2)c2ccc(Cl)cc21", "inhibition at 50 µM, %": 100}

Now look at this one.
Prompt: If you can, please state the reported inhibition at 50 µM value of "O=C1C(=O)N(CC#CCN2CCCCC2)c2ccc(Cl)cc21" .
Response: 3

====

Experiment: In vitro cytotoxic studies
Format: cell-based, human
Settings: human, PC-3 prostate cancer cells
ASSAY_ENDPOINT: cytotoxicity at 72 h, 20 µM (%)
Numeric only. Scale: %

{"COMPOUND": "CCN(CC)CC#CCN1C(=O)C(=O)c2cc(C)ccc21", "EXPERIMENTAL_VALUE": 11.2}

Prompt: Given the compound "O=C1C(=O)N(CC#CCN2CCN(c3ccnc4cc(Cl)ccc34)CC2)c2ccc([N+](=O)[O-])cc21" , what is its reported cytotoxicity at 72 h, 20 µM?
Response: 4.8

Prompt: Let us now turn to "CCN(CC)CC#CCN1C(=O)C(=O)c2cc(Cl)ccc21"
Response: 6.4

====

Assay: In vitro cytotoxic studies
Assay type: cell-based, human
Conditions: human, PC-3 prostate cancer cells
ASSAY_ENDPOINT: cytotoxicity at 72 h, 0.2 µM (%)
Entry rule: numbers only, all in %.

Prompt: Quick check: cytotoxicity at 72 h, 0.2 µM of "Cc1ccc2c(c1)C(=O)C(=O)N2CC#CCN1CCOCC1" ?
Response: 8

Prompt: Also "CCN(CC)CC#CCN1C(=O)C(=O)c2cc(F)ccc21" ?
Response: 11.6

Prompt: Request: "O=C1C(=O)N(CC#CCN2CCN(c3ccnc4cc(Cl)ccc34)CC2)c2ccc(Cl)cc21"
Response: 6.1

Prompt: What do you have for "O=C1C(=O)N(CC#CCN2CCN(c3ccnc4cc(Cl)ccc34)CC2)c2ccccc21" ?
Response: 9

Prompt: Query "O=C1C(=O)N(CC#CCN2CCCCC2)c2ccc(F)cc21" next
Response: -4.7

Prompt: And then "CCN(CC)CC#CCN1C(=O)C(=O)c2cc(Cl)ccc21" , what is it?
Response: 4.8

Prompt: Also, "O=C1C(=O)N(CC#CCN2CCCC2)c2ccc(Cl)cc21" please.
Response: 4.6

Prompt: Please answer likewise for "O=C1C(=O)N(CC#CCN2CCCC2)c2ccc(F)cc21"
Response: 5

Prompt: // same read-out, input: "O=C1C(=O)N(CC#CCN2CCOCC2)c2ccc(F)cc21"
Response: 3.8

Prompt: Next entry: "O=C1C(=O)N(CC#CCN2CCOCC2)c2ccccc21"
Response: 13.4

Prompt: Record: "CCN(CC)CC#CCN1C(=O)C(=O)c2cc(C)ccc21"
Response: 11.5

Prompt: Would you kindly repeat that for "O=C1C(=O)N(CC#CCN2CCN(c3ccnc4cc(Cl)ccc34)CC2)c2ccc([N+](=O)[O-])cc21" ?
Response: 0.5

Prompt: And the next one, "Cc1ccc2c(c1)C(=O)C(=O)N2CC#CCN1CCCC1" ?
Response: 1.9

Prompt: Then what about the molecule "O=C1C(=O)N(CC#CCN2CCOCC2)c2ccc(Cl)cc21" ?
Response: 0.8

Prompt: Same question, "O=C1C(=O)N(CC#CCN2CCN(c3ccnc4cc(Cl)ccc34)CC2)c2ccc(F)cc21" this time
Response: 2.1

Prompt: Try the molecule "O=C1C(=O)N(CC#CCN2CCCC2)c2ccccc21"
Response: 7

Prompt: Cool, now "O=C1C(=O)N(CC#CCN2CCCCC2)c2ccc(Cl)cc21"
Response: 11.1

Prompt: Similarly, "Cc1ccc2c(c1)C(=O)C(=O)N2CC#CCN1CCN(c2ccnc3cc(Cl)ccc23)CC1" ?
Response: 1.3

Prompt: Same thing, different molecule: "CCN(CC)CC#CCN1C(=O)C(=O)c2ccccc21"
Response: 8

Prompt: And then CS(=O)(=O)N1CCN(Cc2cc3nc(-c4cccc5[nH]ncc45)nc(N4CCOCC4)c3s2)CC1 [GDC-0941, reference compound] , what is it?
Response: 30.2

Provenance of the data: paper PMC7115568
